# Tested on: KYSE-140 (Esophageal Squamous Cell Carcinoma)
# Test details: combination Emax (second highest fraction inhibited in the dose matrix, 72 h); higher = more inhibition; extreme values may be limits of the assay
Known combination Emax of a selection of compounds
Assay readout: combination Emax

compound="CN(C)CCCOc1ccc(-c2ccc3ncc4c(c3c2)n(C2CCOCC2)c(=O)n4C)cn1 [AZD0156] + C=CCn1c(=O)c2cnc(Nc3ccc(N4CCN(C)CC4)cc3)nc2n1-c1cccc(C(C)(C)O)n1 [AZD1775] (first compound max 1 µM, partner max 1 µM)" result=0.844
compound="CC1(C)CCC(CN2CCN(c3ccc(C(=O)NS(=O)(=O)c4ccc(NCC5CCOCC5)c([N+](=O)[O-])c4)c(Oc4cnc5[nH]ccc5c4)c3)CC2)=C(c2ccc(Cl)cc2)C1 [Venetoclax] + CCN(CCO)CCCOc1ccc2c(Nc3cc(CC(=O)Nc4cccc(F)c4)[nH]n3)ncnc2c1 [AZD2811] (first compound max 1 µM, 7x7, partner max 1 µM)" result=0.367

* * *

Collected combination Emax values appear next to each entry.
# Test system: MDA-MB-436 (Breast Carcinoma)
# Test details: combination Emax (second highest fraction inhibited in the dose matrix, 72 h); higher = more inhibition; extreme values may be limits of the assay
Assay readout: combination Emax

compound="N#Cc1cnc(Nc2cc(NC[C@H]3CNCCO3)c(C(F)(F)F)cn2)cn1 [SRA737] + CCc1c2c(nc3ccc(O)cc13)-c1cc3c(c(=O)n1C2)COC(=O)[C@]3(O)CC [SN-38] (first compound max 10 µM, 7x7, partner max 0.3 µM)" number=0.549
compound="CN(CCO)CC[C@H](CSc1ccccc1)Nc1ccc(S(=O)(=O)NC(=O)c2ccc(N3CCC([C@@H](O)c4ccccc4-c4ccc(Cl)cc4)CC3)cc2)cc1S(=O)(=O)C(F)(F)F [AZD4320] + C[C@@H]1COCCN1C2=NC(=NC(=C2)C3(CC3)[S@](=N)(=O)C)C4=C5C=CNC5=NC=C4 [AZD6738] (first compound max 1 µM, 7x7, partner max 10 µM)" number=0.34
compound="C=CCn1c(=O)c2cnc(Nc3ccc(N4CCN(C)CC4)cc3)nc2n1-c1cccc(C(C)(C)O)n1 [AZD1775] + O=C(c1cc(Cc2n[nH]c(=O)c3ccccc23)ccc1F)N1CCN(C(=O)C2CC2)CC1 [Olaparib] (first compound max 1 µM, partner max 10 µM)" number=0.271
compound="CC1(C)CCC(CN2CCN(c3ccc(C(=O)NS(=O)(=O)c4ccc(NCC5CCOCC5)c([N+](=O)[O-])c4)c(Oc4cnc5[nH]ccc5c4)c3)CC2)=C(c2ccc(Cl)cc2)C1 [Venetoclax] + C[C@@H]1COCCN1C2=NC(=NC(=C2)C3(CC3)[S@](=N)(=O)C)C4=C5C=CNC5=NC=C4 [AZD6738] (first compound max 1 µM, 7x7, partner max 10 µM)" number=0.36
compound="N#Cc1cnc(Nc2cc(NC[C@H]3CNCCO3)c(C(F)(F)F)cn2)cn1 [SRA737] + C=CCn1c(=O)c2cnc(Nc3ccc(N4CCN(C)CC4)cc3)nc2n1-c1cccc(C(C)(C)O)n1 [AZD1775] (first compound max 10 µM, partner max 1 µM)" number=0.274
compound="C[C@@H](Nc1cc(F)cc(F)c1)c1cc(C(=O)N(C)C)cc2c(=O)cc(N3CCOCC3)oc12 [AZD8186] + CC(=O)c1c(C)c2cnc(Nc3ccc(N4CCNCC4)cn3)nc2n(C2CCCC2)c1=O [Palbociclib] (first compound max 10 µM, 7x7, partner max 10 µM)" number=0.472
compound="COc1cccc(OCCCN)c1-c1cc(Nc2cnc(C#N)cn2)n[nH]1 [Prexasertib] + CN(C)CCCOc1ccc(-c2ccc3ncc4c(c3c2)n(C2CCOCC2)c(=O)n4C)cn1 [AZD0156] (first compound max 1 µM, 7x7, partner max 1 µM)" number=0.41
